measured_target: recombinant human NK3 receptor (Homo sapiens, UniProt P29371)
Construct: expressed in transfected cells; host or cells: HEK293 cells, transient expression; membranes
experiment_summary: [3H]SR142801 competition binding assay
pKi: −log10 of the molar value.
The threshold is inclusive: pKi of exactly 9 counts as label 1; values below receive label 0.

Asked: hey, is pKi for this one >= 9? COc1ccc(OC(=O)N(C)[C@H]2CN(C(=O)C3CCN(CC4CC4)CC3)C[C@@H]2c2ccc(Cl)c(Cl)c2)cc1 (racemic) [Example 9]
Given back: label 0

Asked: Identify whether the reported pKi of the following compound is 9 or greater: CN(C(=O)Oc1ccc(F)cc1)[C@@H]1CN(C(=O)C2CCN(C3CCOCC3)CC2)C[C@H]1c1ccc(Cl)cc1 [Example 112]
Given back: label 0

Asked: Assess whether reported pKi for CN(C(=O)Oc1ccc(F)cc1)[C@@H]1CN(C(=O)C2CCN(c3ccc(F)cn3)CC2)C[C@H]1c1ccc(Cl)c(Cl)c1 [Example 309] sits at 9 or higher.
Given back: label 1

Asked: Threshold query (pKi >= 9) on CN(C(=O)Oc1ccc(F)cc1)[C@@H]1CN(C(=O)C2CCN(C(=O)C3CC(F)C3)CC2)C[C@H]1c1ccc(Cl)cc1 (some centres unmarked) [Example 249]
Given back: label 0

Asked: I'd appreciate it if you could say whether CN(C(=O)Oc1ccc(F)cc1)[C@@H]1CN(C(=O)C2CCNCC2)C[C@H]1c1ccc(Cl)cc1 [Example 135] has pKi at least equal to 9.
Given back: label 0

Asked: Decide: pKi of CN(C(=O)OCC1CCC(F)(F)C1)[C@H]1CN(C(=O)C2CCN(C(=O)C3(C)CC3)CC2)C[C@@H]1c1ccc(Cl)c(Cl)c1 (mixture of isomers) [Example 111] >= 9?
Given back: label 0

Asked: Given CN(C(=O)OCC1CCOC1)[C@H]1CN(C(=O)C2CCN(C(=O)C3(C)CC3)CC2)C[C@@H]1c1ccc(Cl)c(Cl)c1 (mixture of isomers) [Example 85] , state whether its pKi is at least 9.
Given back: label 0

Asked: Given the entry COCC1(C(=O)N2CCC(C(=O)N3C[C@@H](N(C)C(=O)Oc4ccc(F)cc4)[C@H](c4ccc(Cl)c(Cl)c4)C3)CC2)CC1 [Example 277] , answer whether its pKi meets or surpasses 9.
Given back: label 1

Asked: Assess whether reported pKi for CN(C(=O)Oc1ccc(F)cc1)[C@@H]1CN(C(=O)C2CCN(c3ccc(C(N)=O)cn3)CC2)C[C@H]1c1ccc(Cl)cc1 [Example 196] sits at 9 or higher.
Given back: label 0

====

Give measured log10 of Ki for each item. Keep answers brief.
measured_target: recombinant human NK3 receptor (Homo sapiens, UniProt P29371)
Construct: expressed in transfected cells; host or cells: HEK293 cells, transient expression; membranes
Sequence (P29371 1-465): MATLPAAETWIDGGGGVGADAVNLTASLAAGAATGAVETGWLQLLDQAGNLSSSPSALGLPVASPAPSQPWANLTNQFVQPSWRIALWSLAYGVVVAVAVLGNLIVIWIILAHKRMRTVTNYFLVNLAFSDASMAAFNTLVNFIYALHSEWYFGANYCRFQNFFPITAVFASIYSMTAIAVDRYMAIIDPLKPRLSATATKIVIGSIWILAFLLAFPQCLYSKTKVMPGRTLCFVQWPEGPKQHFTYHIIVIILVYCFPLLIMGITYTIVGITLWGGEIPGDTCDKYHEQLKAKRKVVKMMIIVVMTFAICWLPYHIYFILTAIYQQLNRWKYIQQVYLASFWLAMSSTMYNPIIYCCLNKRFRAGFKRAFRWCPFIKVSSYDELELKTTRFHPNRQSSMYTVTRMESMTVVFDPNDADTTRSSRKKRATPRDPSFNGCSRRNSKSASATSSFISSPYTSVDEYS
experiment_summary: [3H]SR142801 competition binding assay
The common logarithm of Ki in nM is what is listed.

Asked: Field: log10 of Ki (recombinant human NK3 receptor (Homo sapiens, UniProt P29371)). Entry: CN(C(=O)O[C@H]1CC[C@H](C(F)(F)F)CC1)[C@@H]1CN(C(=O)C2CCN(C3CCOCC3)CC2)CC1c1ccc(Cl)c(Cl)c1 (stereo in doubt)
Given back: 0.45

Asked: Give recorded log10 of Ki with recombinant human NK3 receptor (Homo sapiens, UniProt P29371) for the following compound: CN(C(=O)Oc1ccc(F)cc1)[C@@H]1CN(C(=O)C2CCN(c3ccc(C(F)(F)F)cn3)CC2)C[C@H]1c1ccc(Cl)c(Cl)c1
Given back: -0.15

Asked: Provide the documented log10 of Ki with recombinant human NK3 receptor (Homo sapiens, UniProt P29371) as the system for CN(C(=O)Oc1ccc(F)cc1)[C@@H]1CN(C(=O)C2CCN(c3cc(C#N)ccn3)CC2)C[C@H]1c1ccc(Cl)cc1
Given back: 0.48

Asked: I'm curious: which log10 of Ki was measured for CN(C(=O)Oc1ccc(F)cc1)[C@@H]1CN(C(=O)C2CCN(c3ccc(C(=O)NC(C)(C)C)cn3)CC2)C[C@H]1c1ccc(Cl)cc1 (racemic) tested on recombinant human NK3 receptor (Homo sapiens, UniProt P29371)?
Given back: 0.20

Asked: Test system recombinant human NK3 receptor (Homo sapiens, UniProt P29371); read-out log10 of Ki; what value for CN(C(=O)Oc1ccccc1Cl)[C@@H]1CN(C(=O)C2CCN(c3ccc(C#N)cn3)CC2)C[C@H]1c1ccc(Cl)cc1 ?
Given back: 0.86

Asked: Tell me reported log10 of Ki for CC(=O)c1ccc(N2CCC(C(=O)N3C[C@@H](N(C)C(=O)Oc4ccc(F)cc4)[C@H](c4ccc(Cl)c(F)c4)C3)CC2)nc1 , tested with recombinant human NK3 receptor (Homo sapiens, UniProt P29371).
Given back: -0.22

Attribution: patent US9226916B2
